The entries below come with measured LD50 at 336 h values attached.
assay: Acute toxicity test by oral and intravenous route on male mice (Table 4); type: in vivo; settings: mouse, in vivo; oral, male mice
Property Measured: LD50 at 336 h

* O=[N+]([O-])c1cc([N+](=O)[O-])c(I)s1 [Compound 1] | 760 mg/kg
* O=C(O)C(C(=O)O)c1csc([N+](=O)[O-])c1 [Compound 12, 5-nitro-3-thiophenemalonic acid] | 1200 mg/kg
* ON=Cc1ccc(Br)s1 [Compound 13, 5-bromo-2-thiophenaldoxime] | 1800 mg/kg

* * *

# reported Radiosensitization Index (R.S.I.); entries follow
system: L 929 cells; assay: Radiosensitization of cells in hypoxic condition under gamma radiation (Table 1); type: cell-based; conditions: concentration 1 × 10^-4 M
Property Measured: Radiosensitization Index (R.S.I.)

* O=C(O)c1ccc([N+](=O)[O-])s1 | 1.82
* ON=Cc1ccc(Br)s1 | 1.65
* O=C(O)C(C(=O)O)c1csc([N+](=O)[O-])c1 | 1.88
* O=C(O)CCNC(=O)c1ccc([N+](=O)[O-])s1 | 1.38
* O=C(O)CCCNC(=O)c1ccc([N+](=O)[O-])s1 | 1.30
* CC(=O)Nc1ccc([N+](=O)[O-])s1 | 1.65

* * *

tested on: L 929 cells; experiment: Cytotoxicity on cell cultures (Table 2); settings: culture time 24 hr; 5 × 10^-5 M; control 166
Property Measured: Cytotoxicity Index (number of cells)

• ON=Cc1ccc(Br)s1 = 130 number of cells
• NC(=O)c1ccc([N+](=O)[O-])s1 = 80 number of cells
• O=C(O)C(C(=O)O)c1csc([N+](=O)[O-])c1 = 136 number of cells
• O=C(O)CCCNC(=O)c1ccc([N+](=O)[O-])s1 = 152 number of cells
• O=C(O)c1ccc([N+](=O)[O-])s1 = 110 number of cells
• CC(=O)Nc1ccc([N+](=O)[O-])s1 = 90 number of cells
• O=C(O)CCNC(=O)c1ccc([N+](=O)[O-])s1 = 164 number of cells

* * *

assay: Reactivity with OH radicals, pulse irradiation (Table 3); details: KCNS 10^-4 M; pulse 50 nsec, dose 18 Gy; λ=500 nm
Property Measured: Reactivity with OH radicals measured as a speed constant (KOH·) (M⁻¹ s⁻¹)

- O=[N+]([O-])c1ccc(Oc2sccc2[N+](=O)[O-])cc1 [Compound 4]: 1.3e+10
- O=C(O)C(C(=O)O)c1csc([N+](=O)[O-])c1 [Compound 12, 5-nitro-3-thiophenemalonic acid]: 7.2e+09
- O=[N+]([O-])c1cc([N+](=O)[O-])c(I)s1 [Compound 1]: 2.1e+10
- NC(=O)c1ccc([N+](=O)[O-])s1 [Compound 5]: 2.3e+10
- O=C(O)c1ccc([N+](=O)[O-])s1 [Compound 6]: 7.5e+09
- ON=Cc1ccc(Br)s1 [Compound 13, 5-bromo-2-thiophenaldoxime]: 8e+09

* * *

test system: L 929 cells; assay: Cytotoxicity on cell cultures (Table 2); conditions: culture time 6 hr; 5 × 10^-5 M; control 62
Property Measured: Cytotoxicity Index (number of cells)

* CC(=O)Nc1ccc([N+](=O)[O-])s1 [Compound 11, 5-nitro-2-(N-acetyl)-thienylamine] | 52 number of cells
* O=C(O)CCNC(=O)c1ccc([N+](=O)[O-])s1 [Compound 7] | 70 number of cells
* NC(=O)c1ccc([N+](=O)[O-])s1 [Compound 5] | 32 number of cells
* O=C(O)C(C(=O)O)c1csc([N+](=O)[O-])c1 [Compound 12, 5-nitro-3-thiophenemalonic acid] | 60 number of cells
* ON=Cc1ccc(Br)s1 [Compound 13, 5-bromo-2-thiophenaldoxime] | 50 number of cells
* O=C(O)c1ccc([N+](=O)[O-])s1 [Compound 6] | 60 number of cells
* O=C(O)CCCNC(=O)c1ccc([N+](=O)[O-])s1 [Compound 8] | 50 number of cells
